Tested on: cancer organoid WCB024T
Assay: Regorafenib dose-response in 384-well LVM suspension culture, CellTitre-Glo 3D viability assay
Format: cell-based
Conditions: Homo sapiens, 168 h, Mid (Right) plate half, 7 days drug, 3% Matrigel, read-out: Mean ED50
recorded endpoint: EC50

Entry `CNC(=O)c1cc(Oc2ccc(NC(=O)Nc3ccc(Cl)c(C(F)(F)F)c3)c(F)c2)ccn1` ; assay system cancer organoid WCB024T; EC50 recorded at 5.15 µM

----------
System: cancer organoid WCB088T
Test: Regorafenib dose-response in 384-well LVM suspension culture, CellTitre-Glo 3D viability assay
Type: cell-based
Conditions: Homo sapiens, 168 h, Mid (Right) plate half, 7 days drug, 3% Matrigel, read-out: Mean ED50
recorded endpoint: pEC50
Expect pEC50 as a plain number equal to -log10 of the molar concentration.

Sample `CNC(=O)c1cc(Oc2ccc(NC(=O)Nc3ccc(Cl)c(C(F)(F)F)c3)c(F)c2)ccn1` ; pEC50 observed: 5.47
